// data source = patent US11739098B2

Let's look at some compounds and their measured pIC50.
- SYSTEM UNDER TEST: human TLR9 (Homo sapiens, UniProt Q9NR96)
- Sequence (Q9NR96 26-1032): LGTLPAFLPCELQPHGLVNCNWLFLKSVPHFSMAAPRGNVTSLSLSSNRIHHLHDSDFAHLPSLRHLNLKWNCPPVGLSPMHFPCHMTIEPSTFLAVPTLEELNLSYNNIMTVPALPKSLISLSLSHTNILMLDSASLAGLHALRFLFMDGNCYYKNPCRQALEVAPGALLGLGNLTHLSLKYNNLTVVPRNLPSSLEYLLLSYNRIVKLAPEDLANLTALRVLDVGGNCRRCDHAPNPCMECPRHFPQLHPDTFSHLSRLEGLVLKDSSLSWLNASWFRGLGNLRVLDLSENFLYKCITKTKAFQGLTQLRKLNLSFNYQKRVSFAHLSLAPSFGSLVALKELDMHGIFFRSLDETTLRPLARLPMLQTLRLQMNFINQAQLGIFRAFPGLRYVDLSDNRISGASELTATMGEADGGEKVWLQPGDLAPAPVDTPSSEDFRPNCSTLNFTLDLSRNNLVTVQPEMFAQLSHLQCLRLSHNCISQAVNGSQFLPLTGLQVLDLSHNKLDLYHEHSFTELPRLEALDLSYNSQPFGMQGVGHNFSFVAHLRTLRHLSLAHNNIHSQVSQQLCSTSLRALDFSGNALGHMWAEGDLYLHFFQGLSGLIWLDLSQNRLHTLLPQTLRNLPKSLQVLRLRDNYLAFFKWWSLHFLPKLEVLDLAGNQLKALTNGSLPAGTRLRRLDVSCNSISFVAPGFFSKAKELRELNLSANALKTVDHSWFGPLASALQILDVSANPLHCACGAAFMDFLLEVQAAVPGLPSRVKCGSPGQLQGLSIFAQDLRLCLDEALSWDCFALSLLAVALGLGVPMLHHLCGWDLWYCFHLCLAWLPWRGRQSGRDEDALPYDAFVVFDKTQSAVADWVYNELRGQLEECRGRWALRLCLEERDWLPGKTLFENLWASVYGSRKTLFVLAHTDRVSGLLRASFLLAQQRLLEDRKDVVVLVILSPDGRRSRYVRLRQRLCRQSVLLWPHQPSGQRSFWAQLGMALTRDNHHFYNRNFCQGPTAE
- ASSAY SUMMARY: TLR9 inhibition reporter assay (HEK-Blue cells, SEAP reporter, ODN2006 stimulation)
- CONDITION DESCRIPTION: HEK-Blue cells overexpressing human TLR9, SEAP reporter, ODN2006 5 nM
- Excerpt: TLR7/8/9 Inhibition Reporter Assays HEK-Blue™-cells (Invivogen) overexpressing human TLR7, TLR8 or TLR9 receptors were used for screening inhibitors of these receptors using an inducible SEAP (secreted embryonic alkaline phosphatase) reporter gene under the control of the IFN-β minimal promoter fused to five NF-κB and AP-1-binding sites. […]
pIC50: −log10 of the molar value.

Observe how each entry below is paired with its result.
>>> value_measured("CNCC(=O)N1CCC(c2ccc3[nH]c(-c4cnc5ccnn5c4)c(C(C)C)c3c2)CC1 [Example 503]")
"6.00 to 7.00"
>>> value_measured("CNCCN1CCC(c2ccc3[nH]c(-c4ccnc5[nH]ncc45)c(C(C)C)c3c2)C(F)C1 (stereo not shown) [Example 677]")
"6.00 to 7.00"
>>> value_measured("CCc1c(-c2cnc3[nH]c(=O)[nH]c3c2)[nH]c2ccc(C3CCNCC3)cc12 [Example 180]")
"4.30 to 6.00"
>>> value_measured("CC(C)c1c(-c2ccnc3[nH]ncc23)[nH]c2ccc(C3CCN(C4CCCNC4)CC3)cc12 (stereo not shown) [Example 653]")
"6.00 to 7.00"
>>> value_measured("COCCNC(=O)c1cn2cc(-c3[nH]c4ccc(C5CCNCC5)cc4c3C(C)C)cc(C)c2n1 [Example 269]")
"6.00 to 7.00"

Entry CNCCN1CCC(c2ccc3[nH]c(-c4ccc5c(c4)OCO5)c(C)c3c2)CC1 [Example 670] ; pIC50 = 4.30 to 6.00

Given item Cc1nnn2ccc(-c3[nH]c4ccc(C5CCN(Cc6ccn(C)n6)CC5)cc4c3C(C)C)cc12 [Example 888] , the value recorded as its pIC50 is 4.30 to 6.00

In plain terms, CCc1c(-c2ccnc3[nH]ncc23)[nH]c2ccc(C3CCN(CC4(N)CC4)CC3)cc12 [Example 657] has a documented pIC50 of 6.00 to 7.00

Entry CNC(=O)c1cn2cc(-c3[nH]c4ccc(C5CCN(CC(=O)N(C)C)CC5)cc4c3C(C)C)cc(C)c2n1 [Example 346] , pIC50 reported as 4.30 to 6.00

Entry CCN(CC)C(=O)C1CCCN(CC(=O)N2CCC(c3ccc4[nH]c(-c5ccnc6[nH]ccc56)c(C(C)C)c4c3)CC2)C1 (stereo not shown) [Example 569] — recorded pIC50 = 6.00 to 7.00

// pIC50 lookup, compound = Cc1cc2ncnn2nc1-c1[nH]c2ccc(C3CCNCC3)cc2c1C(C)C [Example 31] , result: 4.30 to 6.00

pIC50 reported for this compound CC(C)c1c(-c2cnc3cnccn23)[nH]c2ccc(C3CCN(CC(=O)N(C)C)CC3)cc12 [Example 426] : 4.30 to 6.00

GET /value?item= CNC(=O)CN1CCC(c2ccc3[nH]c(-c4cc(C)c5oc(C)nc5c4)c(C(C)C)c3c2)CC1 [Example 339] &field=pIC50 returns 4.30 to 6.00
